# System: rodent lifetime carcinogenesis bioassay, tumor incidence TD50
# ASSAY PROTOCOL: carcinogenic potency in animals, long-term in vivo studies, CPDB compilation (AID 1745844)
# CONDITION PARAMETERS: mouse; strain B6C3F1; females; by gavage; site: liver; lesion: hepatocellular adenoma + hepatocellular carcinoma + neoplastic nodule; dosed 104 weeks; study length 105 weeks

| SMILES REPRESENTATION | TD50 |
| --- | --- |
| c1ccoc1 | 2.19 mg/kg/day |

###

# Tested on: rodent lifetime carcinogenesis bioassay, tumor incidence TD50
# ASSAY PROTOCOL: carcinogenic potency in animals, long-term in vivo studies, CPDB compilation (AID 1745844)
# CONDITION PARAMETERS: mouse; strain B6C3F1; females; oral dosing; site: any site (literature study); lesion: several types; types named in the paper; dosed 79 weeks; study length 79 weeks
Listed here are molecules together with their documented TD50.

| MOLECULE | TESTED ON | TD50 [mg/kg/day] |
| --- | --- | --- |
| C=C1C(C)(C)[C@@]2(Cl)C(Cl)[C@]1(Cl)C(Cl)(Cl)C2(Cl)Cl (some centres not stated) | rodent lifetime carcinogenesis bioassay, tumor incidence TD50 | 3.37 |
| OCCN(CCO)C(=S)S | rodent lifetime carcinogenesis bioassay, tumor incidence TD50 | 48.4 |

###

# Tested on: rodent lifetime carcinogenesis bioassay, tumor incidence TD50
# ASSAY PROTOCOL: carcinogenic potency in animals, long-term in vivo studies, CPDB compilation (AID 1745844)
# CONDITION PARAMETERS: mouse; strain B6C3F1; females; by gavage; site: stomach; lesion: squamous-cell carcinoma + squamous-cell papilloma; dosed 78 weeks; study length 91 weeks
PROPERTY LABEL: TD50

| SMILES REPRESENTATION | TESTED ON | RESULT |
| --- | --- | --- |
| C=CCCl | rodent lifetime carcinogenesis bioassay, tumor incidence TD50 | 706 mg/kg/day |

###

# Tested on: rodent lifetime carcinogenesis bioassay, tumor incidence TD50
# ASSAY PROTOCOL: carcinogenic potency in animals, long-term in vivo studies, CPDB compilation (AID 1745844)
# CONDITION PARAMETERS: rat; strain Fischer 344; females; by gavage; site: all sites; lesion: mononuclear-cell leukemia; dosed 103 weeks; study length 104 weeks
Listed here are compounds together with their documented TD50.

| SMILES REPRESENTATION | TD50 |
| --- | --- |
| Oc1ccc(O)cc1 | 55.8 mg/kg/day |
| C=CCOC(=O)c1ccccc1C(=O)OCC=C | 138 mg/kg/day |

###

# Test system: rodent lifetime carcinogenesis bioassay, tumor incidence TD50
# ASSAY PROTOCOL: carcinogenic potency in animals, long-term in vivo studies, CPDB compilation (AID 1745844)
# CONDITION PARAMETERS: rat; strain F344/DuCrj; females; in feed; site: small intestine; lesion: mucinous carcinoma; dosed 104 weeks; study length 104 weeks
PROPERTY LABEL: TD50

| SMILES REPRESENTATION | PROPERTY LABEL | RESULT |
| --- | --- | --- |
| Nc1ccc2nc3ccccn3c2n1 | TD50 | 711 mg/kg/day |

###

# Tested on: rodent lifetime carcinogenesis bioassay, tumor incidence TD50
# ASSAY PROTOCOL: carcinogenic potency in animals, long-term in vivo studies, CPDB compilation (AID 1745844)
# CONDITION PARAMETERS: mouse; strain B6C3F1; males; in feed; site: subcutaneous tissue; lesion: fibrosarcoma + fibroma; dosed 103 weeks; study length 104 weeks
PROPERTY LABEL: TD50 (mg/kg/day)

| SMILES REPRESENTATION | TESTED ON | READOUT NUMBER |
| --- | --- | --- |
| CCn1cc(C(=O)O)c(=O)c2ccc(C)nc21 | rodent lifetime carcinogenesis bioassay, tumor incidence TD50 | 1210 |

###

# Test system: rodent lifetime carcinogenesis bioassay, tumor incidence TD50
# ASSAY PROTOCOL: carcinogenic potency in animals, long-term in vivo studies, CPDB compilation (AID 1745844)
# CONDITION PARAMETERS: rat; strain Wistar; both sexes; i.p.; site: pancreas, exocrine; lesion: carcinoma; dosed 26 weeks; study length 78 weeks
PROPERTY LABEL: TD50

| SMILES REPRESENTATION | TESTED ON | RESULT |
| --- | --- | --- |
| [N-]=[N+]=CC(=O)OC[C@H](N)C(=O)O | rodent lifetime carcinogenesis bioassay, tumor incidence TD50 | 0.793 mg/kg/day |

###

# Test system: rodent lifetime carcinogenesis bioassay, tumor incidence TD50
# ASSAY PROTOCOL: carcinogenic potency in animals, long-term in vivo studies, CPDB compilation (AID 1745844)
# CONDITION PARAMETERS: mouse; strain BALB/c; females; in drinking water; site: any site (literature study); lesion: several types; types named in the paper; dosed 85 weeks; study length 85 weeks
PROPERTY LABEL: TD50

| SMILES REPRESENTATION | RESULT |
| --- | --- |
| CN(C)N=O | 0.396 mg/kg/day |

###

# System: rodent lifetime carcinogenesis bioassay, tumor incidence TD50
# ASSAY PROTOCOL: carcinogenic potency in animals, long-term in vivo studies, CPDB compilation (AID 1745844)
# CONDITION PARAMETERS: rat; strain Charles River CD (Sprague-Dawley); males; in feed; site: forestomach; lesion: papilloma; dosed 36 weeks; study length 52 weeks
PROPERTY LABEL: TD50

| COMPOUND | RESULT |
| --- | --- |
| C=CC(OC(C)=O)c1ccc2c(c1)OCO2 (configuration not stated) | 21.1 mg/kg/day |
| C=CC(O)c1ccc2c(c1)OCO2 (configuration not stated) | 65.8 mg/kg/day |

###

# System: rodent lifetime carcinogenesis bioassay, tumor incidence TD50
# ASSAY PROTOCOL: carcinogenic potency in animals, long-term in vivo studies, CPDB compilation (AID 1745844)
# CONDITION PARAMETERS: rat; strain ACI; both sexes; in feed; site: colorectum; lesion: papilloma; dosed 94 weeks; study length 94 weeks
PROPERTY LABEL: TD50 (mg/kg/day)

| SMILES REPRESENTATION | TESTED ON | PROPERTY LABEL | UNIT INFO | READOUT NUMBER |
| --- | --- | --- | --- | --- |
| CCOC(=O)c1ccc(N)cc1 | rodent lifetime carcinogenesis bioassay, tumor incidence TD50 | TD50 | mg/kg/day | 331 |

###

# System: rodent lifetime carcinogenesis bioassay, tumor incidence TD50
# ASSAY PROTOCOL: carcinogenic potency in animals, long-term in vivo studies, CPDB compilation (AID 1745844)
# CONDITION PARAMETERS: rat; strain Sprague-Dawley albino; both sexes; in feed; site: liver; lesion: hepatocellular adenoma; dosed 104 weeks; study length 104 weeks

| COMPOUND | TD50 |
| --- | --- |
| C#C[C@]1(OC(C)=O)CC[C@H]2[C@@H]3CCC4=CC(=O)CC[C@@H]4[C@H]3CC[C@@]21C (tested in a mixture with another compound) | 7.59 mg/kg/day |

###

# Tested on: rodent lifetime carcinogenesis bioassay, tumor incidence TD50
# ASSAY PROTOCOL: carcinogenic potency in animals, long-term in vivo studies, CPDB compilation (AID 1745844)
# CONDITION PARAMETERS: rat; strain Fischer 344; females; in drinking water; site: Zymbal's gland; lesion: adenoma + carcinoma; dosed 96 weeks; study length 97 weeks
PROPERTY LABEL: TD50

| SMILES REPRESENTATION | RESULT |
| --- | --- |
| COc1cc(-c2ccc(N=Nc3c(S(=O)(=O)O)cc4cc(S(=O)(=O)O)cc(N)c4c3O)c(OC)c2)ccc1N=Nc1c(S(=O)(=O)O)cc2cc(S(=O)(=O)O)cc(N)c2c1O | 104 mg/kg/day |

###

# Test system: rodent lifetime carcinogenesis bioassay, tumor incidence TD50
# ASSAY PROTOCOL: carcinogenic potency in animals, long-term in vivo studies, CPDB compilation (AID 1745844)
# CONDITION PARAMETERS: mouse; strain B6C3F1; males; in feed; site: lung; lesion: alveolar/bronchiolar adenoma + alveolar/bronchiolar carcinoma; dosed 78 weeks; study length 95 weeks

| SMILES REPRESENTATION | TD50 |
| --- | --- |
| Nc1ccc(Cl)cc1N | 21300 mg/kg/day |
| [O-]/[N+](=N\O)c1ccccc1 | 2390 mg/kg/day |

###

# Tested on: rodent lifetime carcinogenesis bioassay, tumor incidence TD50
# ASSAY PROTOCOL: carcinogenic potency in animals, long-term in vivo studies, CPDB compilation (AID 1745844)
# CONDITION PARAMETERS: rat; strain Fischer 344; females; in drinking water; site: thyroid gland; lesion: follicular-cell adenoma; dosed 100 weeks; study length 126 weeks

| SMILES REPRESENTATION | TESTED ON | TD50 / mg/kg/day |
| --- | --- | --- |
| O=NN1CCOCC1 | rodent lifetime carcinogenesis bioassay, tumor incidence TD50 | 0.581 |
